These data points were gathered from paper doi:10.1101/2021.10.07.463234v2.

- Measurement Target: SARS-CoV-2 Mac1 (Severe acute respiratory syndrome coronavirus 2, UniProt P0DTD1)
- Method Notes: biochemical
- Run Conditions: read-out: %inhibition
Structures can show the parent of a compound that is named as a salt.
inhibition at 100 µM of 20% or higher: 1. Under 20%: -1.

Task: inhibition at 100 µM >= 20% for CS(=O)(=O)OCCCCOS(C)(=O)=O ?
Result: -1

Task: inhibition at 100 µM >= 20% for N=C(N)NC(=N)N1CCOCC1 [Moroxydine HCl] ?
Result: -1

Task: inhibition at 100 µM >= 20% for O=C(O)c1cc(-c2ccccc2)nc2ccccc12 ?
Result: -1

Task: inhibition at 100 µM >= 20% for NC(=O)C1CCCc2c1[nH]c1ccc(Cl)cc21 (centres unmarked) [Selisistat (EX 527)] ?
Result: -1

Task: inhibition at 100 µM >= 20% for COc1cccc2c1C(=O)c1c(O)c3c(c(O)c1C2=O)C[C@@](O)(C(=O)CO)C[C@@H]3O[C@H]1C[C@H](N)[C@@H](O)[C@H](C)O1 [Epirubicin HCl] ?
Result: 1
